Measured pIC50 of individual entries
Target: Prostaglandin G/H synthase 2 (Ovis aries, UniProt P79208)
Sequence (P79208 whole entry): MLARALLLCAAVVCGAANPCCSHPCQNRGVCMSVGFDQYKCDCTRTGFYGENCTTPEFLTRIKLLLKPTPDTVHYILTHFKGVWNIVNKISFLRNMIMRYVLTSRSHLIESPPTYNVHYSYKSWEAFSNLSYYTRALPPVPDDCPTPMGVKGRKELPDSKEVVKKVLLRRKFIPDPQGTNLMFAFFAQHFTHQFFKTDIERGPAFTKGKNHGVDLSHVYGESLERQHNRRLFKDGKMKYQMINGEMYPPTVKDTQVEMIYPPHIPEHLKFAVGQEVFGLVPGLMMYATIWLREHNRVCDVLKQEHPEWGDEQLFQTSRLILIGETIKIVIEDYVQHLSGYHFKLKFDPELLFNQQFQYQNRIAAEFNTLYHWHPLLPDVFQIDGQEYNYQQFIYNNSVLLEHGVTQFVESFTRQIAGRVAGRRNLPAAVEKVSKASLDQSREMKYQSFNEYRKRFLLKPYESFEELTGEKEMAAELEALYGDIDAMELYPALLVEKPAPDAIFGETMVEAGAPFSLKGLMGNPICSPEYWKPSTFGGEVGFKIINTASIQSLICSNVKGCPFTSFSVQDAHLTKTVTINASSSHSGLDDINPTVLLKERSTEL
Would you please state pIC50, meaning minus log10 of the concentration in mol/L, as a bare number?

Below, each entry is followed by its recorded pIC50 result.
{"compound": "Cc1ccc(-c2ncc(Cl)cc2-c2ccc(S(C)(=O)=O)cc2)cn1", "pIC50": 6.64}
{"compound": "COc1ccc(C2CC(c3cc4ccccc4oc3=O)=NN2C(C)=O)cc1 (stereo not drawn)", "pIC50": 6.39}

API: the following record is the query input.
Problem: Return pIC50 for the following compound: CC(=O)N1N=C(c2cc3ccccc3oc2=O)CC1c1ccc([N+](=O)[O-])cc1 (stereo not drawn)
Solution: 5.75

Where do the numbers come from? From ChEMBL document CHEMBL4480366.
